- measurement_setup: 293.15 K; 101.33 kPa; Liquid; Other PVT measurement
test_readout: mass density (kg/m3)

smiles_representation	mass density / kg/m3
CCCCCC	659
CCCCCCCCC	718
c1ccc(C2CCCCC2)cc1	940
CCCC1CCCCC1	790
CCCCCCC1CCCCC1	810
CCCCCCCCCCCCCCCC	773
c1ccccc1	877
C1CCCCC1	778
C1CCC(C2CCCCC2)CC1	890
CCCCCCCCCCCC	753
CCCCCCCCCCCCCC	767
